Experiment: Solubility of the drug substances in solvents
Assay type: physicochemical
Conditions: ethanol and isopropanol, organic solvent or mixture
readout.type: solubility

sample_smiles=CC(C)N=c1cc2n(-c3ccc(Cl)cc3)c3ccccc3nc-2cc1Nc1ccc(Cl)cc1 result="≤ 800 µg/mL"
